# targetOfAssay: S. aureus Enopyruvyl-UPD-N-acetylglucosamine reductase, Mur B (Staphylococcus aureus, UniProt P61431)
# Sequence (P61431 whole entry): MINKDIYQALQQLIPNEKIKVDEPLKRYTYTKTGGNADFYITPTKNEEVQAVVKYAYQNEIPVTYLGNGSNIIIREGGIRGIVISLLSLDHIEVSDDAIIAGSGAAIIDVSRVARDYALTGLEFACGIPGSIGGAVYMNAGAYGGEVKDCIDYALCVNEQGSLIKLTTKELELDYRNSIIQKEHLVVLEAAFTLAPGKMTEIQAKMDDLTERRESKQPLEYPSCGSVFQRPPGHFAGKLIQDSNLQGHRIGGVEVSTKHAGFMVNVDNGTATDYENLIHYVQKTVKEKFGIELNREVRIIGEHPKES
# protocolNotes: biochemical
# conditionsUsed: (S) S. aureus enzyme; read-out: MurB IC50 (converted)
// NB: equality with 10 µM counts as F; only IC50 strictly below is T

INSERT INTO results (compound, classlabel) VALUES
  ('COC(=O)c1ccc(C2=C(O)/C(=C/c3cccc4ccccc34)OC2=O)cc1 [Example 74]', 'F');

-- ask State whether 10 µM exceeds IC50 recorded for O=C1O/C(=C\c2ccc(-c3ccccc3)cc2)C(O)=C1c1cccs1 [Example 144] .
-- reply F

-- ask State whether 10 µM exceeds IC50 recorded for O=C1O/C(=C\c2ccc(Cl)cc2)C(O)=C1c1ccc2ccccc2c1 [Example 43] .
-- reply F

-- ask State whether 10 µM exceeds IC50 recorded for O=C1O/C(=C\c2ccc(N3CCOCC3)c3ccccc23)C(O)=C1c1cccc(Cl)c1 [Example 37] .
-- reply F

-- ask State whether 10 µM exceeds IC50 recorded for Cc1cc(/C=C2\OC(=O)C(c3cc(Cl)cc(Cl)c3)=C2O)ccc1-c1ccccc1C(F)(F)F [Example 27] .
-- reply T

-- ask State whether 10 µM exceeds IC50 recorded for COc1cc(/C=C2\OC(=O)C(c3cc(Cl)cc(Cl)c3)=C2O)ccc1-c1ccccc1C [Example 25] .
-- reply T

-- ask State whether 10 µM exceeds IC50 recorded for O=C1O/C(=C\c2cccc3ccccc23)C(O)=C1c1cc(Cl)cc(Cl)c1 [Example 70] .
-- reply F

-- ask State whether 10 µM exceeds IC50 recorded for COc1ccccc1-c1ccc(/C=C2\OC(=O)C(c3cc(Cl)cc(Cl)c3)=C2O)cc1OC [Example 19] .
-- reply F

-- ask State whether 10 µM exceeds IC50 recorded for O=C1O/C(=C\c2cccc3ccccc23)C(O)=C1c1cccc(C(F)(F)F)c1 [Example 5] .
-- reply F

-- ask State whether 10 µM exceeds IC50 recorded for COc1cc(/C=C2\OC(=O)C(c3cc(Cl)cc(Cl)c3)=C2O)ccc1-c1ccccc1Cl [Example 21] .
-- reply T

-- ask State whether 10 µM exceeds IC50 recorded for COc1cccc(C2=C(O)/C(=C/c3cccc4ccccc34)OC2=O)c1 [Example 72] .
-- reply F

-- ask State whether 10 µM exceeds IC50 recorded for O=C1O/C(=C\c2cccc3ccccc23)C(O)=C1c1cccc2ccccc12 [Example 47] .
-- reply F

-- ask State whether 10 µM exceeds IC50 recorded for O=Cc1cccc(C2=C(O)/C(=C/c3cccc4ccccc34)OC2=O)c1 [Example 76] .
-- reply F

-- ask State whether 10 µM exceeds IC50 recorded for Cc1ccccc1-c1ccc(/C=C2\OC(=O)C(c3cccc(Cl)c3)=C2O)cc1C [Example 28] .
-- reply T

-- ask State whether 10 µM exceeds IC50 recorded for Cc1ccccc1-c1ccc(/C=C2\OC(=O)C(c3cc(Cl)cc(Cl)c3)=C2O)cc1C [Example 29] .
-- reply T

-- ask State whether 10 µM exceeds IC50 recorded for Cc1cc(/C=C2\OC(=O)C(c3cccc(Cl)c3)=C2O)ccc1-c1ccccc1Cl [Example 30] .
-- reply T

----------
# targetOfAssay: E. coli Uridine-diphosphate-N-acetvimuramoyl: L-alanine lipase, MurC (Escherichia coli)
# Sequence (P17952 whole entry): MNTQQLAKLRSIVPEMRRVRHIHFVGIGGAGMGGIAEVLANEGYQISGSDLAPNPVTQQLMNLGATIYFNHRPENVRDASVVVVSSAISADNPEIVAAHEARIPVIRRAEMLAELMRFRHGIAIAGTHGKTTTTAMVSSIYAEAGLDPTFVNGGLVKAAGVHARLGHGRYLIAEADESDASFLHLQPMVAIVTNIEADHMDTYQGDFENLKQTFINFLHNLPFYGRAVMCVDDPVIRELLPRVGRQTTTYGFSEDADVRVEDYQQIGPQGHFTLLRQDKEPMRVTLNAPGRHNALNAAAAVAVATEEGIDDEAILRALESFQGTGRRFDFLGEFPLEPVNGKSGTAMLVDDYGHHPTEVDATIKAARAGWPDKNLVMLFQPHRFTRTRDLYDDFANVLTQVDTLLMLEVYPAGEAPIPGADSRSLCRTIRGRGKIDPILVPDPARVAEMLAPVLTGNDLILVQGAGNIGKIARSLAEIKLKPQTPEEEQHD
# protocolNotes: Inhibitory activity against MurC (E. coli)
# Type: biochemical
# conditionsUsed: (E) E. coli enzyme
Recorded MurC IC50 values for a group of compounds are listed next.

INSERT INTO results (compound, targetofassay, reading) VALUES
  ('O=C1O/C(=C\c2cccc(C(F)(F)F)c2)C(O)=C1c1ccc(-c2ccccc2)cc1', 'E. coli Uridine-diphosphate-N-acetvimuramoyl: L-alanine lipase, MurC (Escherichia coli)', '8 (E) μg/mL'),
  ('O=C1O/C(=C\c2cccc3ccccc23)C(O)=C1c1ccc(Cl)cc1', 'E. coli Uridine-diphosphate-N-acetvimuramoyl: L-alanine lipase, MurC (Escherichia coli)', '7 µg/mL'),
  ('O=C1O/C(=C\C2CCCCC2)C(O)=C1c1cccc(C(F)(F)F)c1', 'E. coli Uridine-diphosphate-N-acetvimuramoyl: L-alanine lipase, MurC (Escherichia coli)', '10 µg/mL');

-- ask For O=C1O/C(=C\c2cccc3ccccc23)C(O)=C1c1cccc(C(F)(F)F)c1 , what is its reported MurC IC50?
-- reply 6 (E) μg/mL

-- ask For Cc1ccc(C=C2OC(=O)C(c3ccc(Cl)cc3)=C2O)s1 [Example 14] , what is its reported MurC IC50?
-- reply 13 µg/mL

-- ask For O=C1O/C(=C\c2ccc(Cl)cc2)C(O)=C1c1ccc(-c2ccccc2)cc1 , what is its reported MurC IC50?
-- reply 16 (E) μg/mL

-- ask For O=C1O/C(=C\c2ccc(-c3ccccc3)cc2)C(O)=C1c1ccc2ccccc2c1 , what is its reported MurC IC50?
-- reply 10 (E) μg/mL

-- ask For N#Cc1ccc(C2=C(O)/C(=C/c3ccc(-c4ccc(C#N)cc4)cc3)OC2=O)cc1 , what is its reported MurC IC50?
-- reply 5 (E) μg/mL

-- ask For O=C1O/C(=C\c2cccc3ccccc23)C(O)=C1c1cccc(C=NO)c1 , what is its reported MurC IC50?
-- reply 9 µg/mL
